Values compiled from patent US10208027B2.

Tested on: HCT116 colorectal cancer cells
Assay: Single agent HCT116 activity, 96 h cell viability (MTS) assay
Format: cell-based
Details: Homo sapiens, HCT-116, 96 h MTS viability, read-out: Single agent HT116 IC50
metric: IC50 (nM)
Write the number in nM without appending the unit.

Noted IC50 for `[2H]C([2H])([2H])NC([2H])([2H])c1ccc(-c2cc(-c3nc(-c4ccc(S(=O)(=O)C(C)C)cc4)cnc3N)on2)cc1` , tested on HCT116 colorectal cancer cells: 46

Record for `[2H]C([2H])(NC)c1ccc(-c2cc(-c3nc(-c4ccc(S(=O)(=O)C(C)C)cc4)cnc3N)on2)cc1` under target or system HCT116 colorectal cancer cells: IC50 reported as 62

Item: `[2H]C([2H])([2H])NCc1ccc(-c2cc(-c3nc(-c4ccc(S(=O)(=O)C(C)C)cc4)cnc3N)on2)cc1` | System: HCT116 colorectal cancer cells | IC50: 66
